Where do these numbers come from? They come from patent US20240209076A1.

- System Tested: T1, recombinant human IL-6 (human, UniProt P05231 30-212)
- T1 construct: Bought protein
- T1 sequence (P05231 30-212 limits assumed): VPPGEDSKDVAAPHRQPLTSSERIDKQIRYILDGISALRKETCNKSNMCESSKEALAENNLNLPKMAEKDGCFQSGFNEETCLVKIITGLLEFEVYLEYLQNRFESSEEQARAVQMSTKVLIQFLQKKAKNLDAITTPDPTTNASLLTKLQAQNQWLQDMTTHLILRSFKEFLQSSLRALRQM
- Test: SPR Biacore, supernatant Ab on Protein A chip, IL-6 analyte, 25 C
# Kd listing for each entry below
API: value field is a number in nM; no unit string.

These recorded examples may help you get a feel for the data.
>  <Binder>
anti-IL-6 antibody, light chain M32L (heavy chain WT) (antibody, V domains shown, See note of m2; also called WT / M32L) VH: EVQLVESGGGLVQPGGSLRLSCAASGFTFSPFAMSWVRQAPGKGLEWVAKISPGGSWTYYSDTVTGRFTFSLDTSKSTAYLQMNSLRAEDTAVYYCARQLWGYYALDIWGQGTLVTVSS VL: DIQLTQSPSSLSASVGDRVTITCSASISVSYLYWYQQKPGKAPKLLIYDMSNLASGVPSRFSGSGSGTDFTLTISSLQPEDFATYYCMQWSGYPYTFGQGTKVEIK

>  <Kd, nM>
0.199

$$$$
>  <Binder>
anti-IL-6 antibody, light chain M88V (heavy chain WT) (antibody, V domains shown, See note of m2; also called WT / M88V) VH: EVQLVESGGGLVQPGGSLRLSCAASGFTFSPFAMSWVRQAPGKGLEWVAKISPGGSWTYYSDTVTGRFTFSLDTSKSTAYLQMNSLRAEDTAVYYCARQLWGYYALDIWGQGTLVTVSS VL: DIQLTQSPSSLSASVGDRVTITCSASISVSYMYWYQQKPGKAPKLLIYDMSNLASGVPSRFSGSGSGTDFTLTISSLQPEDFATYYCVQWSGYPYTFGQGTKVEIK

>  <Kd, nM>
0.239

$$$$

Could you now consider this next binder?
GET /value?item= anti-IL-6 antibody, light chain M32V (heavy chain WT) (antibody, V domains shown, See note of m2; also called WT / M32V) VH: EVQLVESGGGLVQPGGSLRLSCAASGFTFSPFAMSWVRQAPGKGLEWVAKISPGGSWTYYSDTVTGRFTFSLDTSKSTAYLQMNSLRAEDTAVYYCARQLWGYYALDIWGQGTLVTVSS VL: DIQLTQSPSSLSASVGDRVTITCSASISVSYVYWYQQKPGKAPKLLIYDMSNLASGVPSRFSGSGSGTDFTLTISSLQPEDFATYYCMQWSGYPYTFGQGTKVEIK &field=Kd returns 0.23
